This section presents compounds with their documented inhibition on the reuptake of NA(%) values.
Biological target: reuptake of NA by brain synaptosomes (prefrontal cortex) (Rattus norvegicus, UniProt Q9WTR4)
Construct: from tissue; host or cells: rat prefrontal cortex synaptosomes
Sequence (Q9WTR4 1-597): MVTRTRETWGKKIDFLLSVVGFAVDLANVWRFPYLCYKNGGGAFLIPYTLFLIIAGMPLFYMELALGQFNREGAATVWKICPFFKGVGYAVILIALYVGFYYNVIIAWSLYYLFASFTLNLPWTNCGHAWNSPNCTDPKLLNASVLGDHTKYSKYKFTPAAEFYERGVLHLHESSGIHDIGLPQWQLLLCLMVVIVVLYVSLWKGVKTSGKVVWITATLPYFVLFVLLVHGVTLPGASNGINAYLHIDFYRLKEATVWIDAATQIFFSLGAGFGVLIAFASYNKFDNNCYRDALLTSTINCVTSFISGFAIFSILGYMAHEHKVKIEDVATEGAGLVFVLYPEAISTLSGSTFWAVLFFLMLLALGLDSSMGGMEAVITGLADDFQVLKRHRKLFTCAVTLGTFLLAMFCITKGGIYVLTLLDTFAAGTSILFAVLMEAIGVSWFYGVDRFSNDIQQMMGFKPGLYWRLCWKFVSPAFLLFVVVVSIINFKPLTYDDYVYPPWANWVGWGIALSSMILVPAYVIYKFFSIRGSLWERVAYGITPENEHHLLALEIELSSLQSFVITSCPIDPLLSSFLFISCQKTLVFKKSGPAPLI
Test: Inhibition of [3H]NA reuptake by rat brain synaptosomes, single concentration (Example 35)
Assay type: biochemical
Settings: test substance 10 μmol/L; inhibitory rate of 0.1 mM venlafaxine taken as 100%
quantityMeasured: inhibition on the reuptake of NA(%)

compound | reported
CCCC[C@H]([C@@H](O)c1ccc2c(Cl)c(OC)ccc2c1)N1CCN(Cc2ccccc2)CC1 (racemic) [VIII-9] | 155.2
CCCC[C@H]([C@H](O)c1ccc2c(Cl)c(OC)ccc2c1)N1CCN(Cc2ccccc2)CC1 (racemic) [VIII-10] | 145
CCCC[C@@H]([C@@H](O)c1ccc2c(Cl)c(OC)ccc2c1)N1CCN(CC=Cc2ccccc2)CC1 (racemic) [VIII-22] | 78.9
CCCC[C@@H]([C@H](O)c1ccc2c(Cl)c(OC)ccc2c1)N1CCN(c2ccccc2OC)CC1 (racemic) [VIII-3] | 144

----------
Assay: Pharmacokinetics and bioavailability, single i.v. and oral administration in SD rat
Format: in vivo
Settings: male, plasma, oral 50 mg/kg, read-out: AUC (0-t)

compound | AUC (0-t) [ng·h/mL]
COc1ccc2cc([C@@H](O)[C@H](C)N3CCN(Cc4ccccc4)CC3)ccc2c1Cl [SIPI5286, reference compound] | 30300

----------
Target: reuptake of [3H]5-HT by prefrontal cortex synaptosomes (Rattus norvegicus, UniProt P31652)
Sequence (P31652 whole entry): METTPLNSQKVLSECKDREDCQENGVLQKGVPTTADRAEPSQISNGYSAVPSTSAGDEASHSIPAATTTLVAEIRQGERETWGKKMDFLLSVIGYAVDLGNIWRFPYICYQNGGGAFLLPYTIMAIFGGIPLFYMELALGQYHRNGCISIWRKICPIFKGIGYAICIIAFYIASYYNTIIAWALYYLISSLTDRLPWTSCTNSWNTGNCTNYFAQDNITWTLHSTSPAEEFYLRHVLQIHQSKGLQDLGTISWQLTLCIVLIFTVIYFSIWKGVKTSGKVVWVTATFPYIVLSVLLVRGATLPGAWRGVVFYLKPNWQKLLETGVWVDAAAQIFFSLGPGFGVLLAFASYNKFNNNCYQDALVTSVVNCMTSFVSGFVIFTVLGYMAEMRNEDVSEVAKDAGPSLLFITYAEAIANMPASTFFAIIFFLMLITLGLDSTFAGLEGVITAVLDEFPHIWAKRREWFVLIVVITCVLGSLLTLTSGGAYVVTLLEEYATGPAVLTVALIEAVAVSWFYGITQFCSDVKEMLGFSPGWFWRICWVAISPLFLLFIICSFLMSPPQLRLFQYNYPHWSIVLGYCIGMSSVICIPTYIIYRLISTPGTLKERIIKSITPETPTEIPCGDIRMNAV
Test: IC50 for inhibiting reuptake of [3H]5-HT by brain synaptosomes (Example 36)
Conditions: mean, n = 3~4

compound | IC50
COc1ccc2cc(C(O)C(C)N3CCN(Cc4ccccc4)CC3)ccc2c1Cl (stereo not shown) [SIPIyy24, reference compound] | 200 nM
CCCC[C@H]([C@@H](O)c1ccc2c(Cl)c(OC)ccc2c1)N1CCN(Cc2ccccc2)CC1 (racemic) | 73.3 nM
CCCC[C@H]([C@H](O)c1ccc2c(Cl)c(OC)ccc2c1)N1CCN(Cc2ccccc2)CC1 (racemic) | 272 nM
COc1ccc2cc([C@@H](O)[C@H](C)N3CCN(Cc4ccccc4)CC3)ccc2c1Cl [SIPI5286, reference compound] | 12 nM

----------
Experiment: Pharmacokinetics and bioavailability, single i.v. and oral administration in SD rat
Format: in vivo
Details: male, plasma, oral 50 mg/kg, read-out: Tmax

compound | Tmax, min
COc1ccc2cc([C@@H](O)[C@H](C)N3CCN(Cc4ccccc4)CC3)ccc2c1Cl [SIPI5286, reference compound] | 30

----------
Target: reuptake of [3H]NA by prefrontal cortex synaptosomes (Rattus norvegicus, UniProt Q9WTR4)
Sequence (Q9WTR4 1-597): as the sequence (Q9WTR4 1-597) above
Experiment: IC50 for inhibiting reuptake of [3H]NA by brain synaptosomes (Example 36)
Conditions: mean, n = 3~4
This section presents molecules with their documented IC50 values.
quantityMeasured: IC50

molecule | quantityMeasured | reported
COc1ccc2cc(C(O)C(C)N3CCN(Cc4ccccc4)CC3)ccc2c1Cl (stereo not shown) [SIPIyy24, reference compound] | IC50 | 1000 nM
CCCC[C@H]([C@@H](O)c1ccc2c(Cl)c(OC)ccc2c1)N1CCN(Cc2ccccc2)CC1 (racemic) | IC50 | 2.8 nM
COc1ccc2cc([C@@H](O)[C@H](C)N3CCN(Cc4ccccc4)CC3)ccc2c1Cl [SIPI5286, reference compound] | IC50 | 185 nM
CCCC[C@H]([C@H](O)c1ccc2c(Cl)c(OC)ccc2c1)N1CCN(Cc2ccccc2)CC1 (racemic) | IC50 | 4730 nM

----------
Molecular target: reuptake of DA by brain synaptosomes (striatum) (Rattus norvegicus)
Construct: from tissue; host or cells: rat striatum synaptosomes
Sequence (P23977 whole entry): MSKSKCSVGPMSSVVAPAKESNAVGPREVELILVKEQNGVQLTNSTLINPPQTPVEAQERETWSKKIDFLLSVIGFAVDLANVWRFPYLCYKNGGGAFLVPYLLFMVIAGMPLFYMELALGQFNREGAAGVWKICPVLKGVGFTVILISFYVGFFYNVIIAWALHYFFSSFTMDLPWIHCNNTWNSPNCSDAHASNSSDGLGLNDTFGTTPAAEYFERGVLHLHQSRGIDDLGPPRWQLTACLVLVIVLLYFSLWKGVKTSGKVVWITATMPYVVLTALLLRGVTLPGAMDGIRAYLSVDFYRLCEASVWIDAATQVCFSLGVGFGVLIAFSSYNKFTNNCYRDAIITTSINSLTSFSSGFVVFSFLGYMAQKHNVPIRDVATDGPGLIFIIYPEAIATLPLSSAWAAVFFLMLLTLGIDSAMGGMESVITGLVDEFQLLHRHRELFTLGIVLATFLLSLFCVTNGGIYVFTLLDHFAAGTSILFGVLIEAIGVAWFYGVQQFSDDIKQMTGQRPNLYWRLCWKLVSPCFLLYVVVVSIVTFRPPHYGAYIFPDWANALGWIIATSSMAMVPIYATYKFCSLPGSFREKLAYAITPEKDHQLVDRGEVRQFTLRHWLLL
Assay: Inhibition of [3H]DA reuptake by rat brain synaptosomes, single concentration (Example 35)
Format: biochemical
Details: test substance 10 μmol/L; inhibitory rate of 0.1 mM 6-hydroxy DA taken as 100%
This section presents compounds with their documented inhibition on the reuptake of DA(%) values.
quantityMeasured: inhibition on the reuptake of DA(%)

compound | reported
CCCC[C@H]([C@H](O)c1ccc2c(Cl)c(OC)ccc2c1)N1CCN(Cc2ccccc2)CC1 (racemic) | 133%
CCCC[C@H]([C@@H](O)c1ccc2c(Cl)c(OC)ccc2c1)N1CCN(Cc2ccccc2)CC1 (racemic) | 117%
CCCC[C@H]([C@@H](O)c1ccc2c(Cl)c(OC)ccc2c1)N1CCN(C(c2ccccc2)c2ccccc2)CC1 (racemic) | 95%
CCCC[C@@H]([C@H](O)c1ccc2c(Cl)c(OC)ccc2c1)N1CCN(c2ccccc2OC)CC1 (racemic) | 96%
CCCC[C@H]([C@@H](O)c1ccc2c(Cl)c(OC)ccc2c1)N1CCN(CC=Cc2ccccc2)CC1 (racemic) | 90%
CCCC[C@H]([C@H](O)c1ccc2c(Cl)c(OC)ccc2c1)N1CCN(C(c2ccccc2)c2ccccc2)CC1 (racemic) | 57%
NCCc1cc(O)c(O)cc1O [6-hydroxy DA, reference compound] | 100%
CCCC[C@@H]([C@@H](O)c1ccc2c(Cl)c(OC)ccc2c1)N1CCN(CC=Cc2ccccc2)CC1 (racemic) | 94%
CCCC[C@@H]([C@@H](O)c1ccc2c(Cl)c(OC)ccc2c1)N1CCN(c2ccccc2OC)CC1 (racemic) | 68%

----------
Target: DA reuptake, Rat striatum synaptosome (Rattus norvegicus)
Construct: Rat striatum
Sequence (P23977 whole entry): as above
Experiment: DA reuptake, optical isomers (Example 37)
Details: 15 min/37° C.
pIC50: −log10 of the molar value.
This section presents molecules with their documented pIC50 values.
quantityMeasured: pIC50

molecule | targetSystem | quantityMeasured | reported
CCCCC(C(O)c1ccc2c(Cl)c(OC)ccc2c1)N1CCN(Cc2ccccc2)CC1 (stereo not shown) [IX-26] | DA reuptake, Rat striatum synaptosome (Rattus norvegicus) | pIC50 | 5.96
CCCCC(C(O)c1ccc2c(Cl)c(OC)ccc2c1)N1CCN(Cc2ccccc2)CC1 (single isomer, unassigned) [IX-24] | DA reuptake, Rat striatum synaptosome (Rattus norvegicus) | pIC50 | 5.96
CCCCC(C(O)c1ccc2c(Cl)c(OC)ccc2c1)N1CCN(Cc2ccccc2)CC1 (single isomer, unassigned) [IX-23] | DA reuptake, Rat striatum synaptosome (Rattus norvegicus) | pIC50 | 6.00
CCCCC(C(O)c1ccc2c(Cl)c(OC)ccc2c1)N1CCN(Cc2ccccc2)CC1 (stereo not shown) [IX-25] | DA reuptake, Rat striatum synaptosome (Rattus norvegicus) | pIC50 | 6.17

----------
Biological target: reuptake of [3H]DA by striatum synaptosomes (Rattus norvegicus)
Sequence (P23977 whole entry): as above
Experiment: IC50 for inhibiting reuptake of [3H]DA by brain synaptosomes (Example 36)
Conditions: mean, n = 3~4
quantityMeasured: IC50

compound | targetSystem | reported
CCCC[C@H]([C@H](O)c1ccc2c(Cl)c(OC)ccc2c1)N1CCN(Cc2ccccc2)CC1 (racemic) [VIII-10] | reuptake of [3H]DA by striatum synaptosomes (Rattus norvegicus) | 165 nM
CCCC[C@H]([C@@H](O)c1ccc2c(Cl)c(OC)ccc2c1)N1CCN(Cc2ccccc2)CC1 (racemic) [VIII-9] | reuptake of [3H]DA by striatum synaptosomes (Rattus norvegicus) | 2.1 nM
COc1ccc2cc([C@@H](O)[C@H](C)N3CCN(Cc4ccccc4)CC3)ccc2c1Cl [SIPI5286, reference compound] | reuptake of [3H]DA by striatum synaptosomes (Rattus norvegicus) | 1150 nM

----------
Assay: Pharmacokinetics and bioavailability, single i.v. and oral administration in SD rat
Assay type: in vivo
Details: male, plasma, oral 50 mg/kg vs i.v. 10 mg/kg, read-out: bioavailability

compound | units | bioavailability
COc1ccc2cc([C@@H](O)[C@H](C)N3CCN(Cc4ccccc4)CC3)ccc2c1Cl [SIPI5286, reference compound] | % | 51.6

----------
Experiment: Pharmacokinetics and bioavailability, single i.v. and oral administration in SD rat
Format: in vivo
Conditions: male, plasma, oral 50 mg/kg, read-out: Cmax
quantityMeasured: Cmax (ng/mL)

compound | units | reported
COc1ccc2cc([C@@H](O)[C@H](C)N3CCN(Cc4ccccc4)CC3)ccc2c1Cl [SIPI5286, reference compound] | ng/mL | 6860

----------
Molecular target: reuptake of NA by brain synaptosomes (prefrontal cortex) (Rattus norvegicus)
Construct: from tissue; host or cells: rat prefrontal cortex synaptosomes
Experiment: Inhibition of [3H]NA reuptake by rat brain synaptosomes, single concentration (Example 35)
Format: biochemical
Conditions: test substance 10 μmol/L; inhibitory rate of 0.1 mM venlafaxine taken as 100%

molecule | inhibition on the reuptake of NA(%)
CCCC[C@H]([C@@H](O)c1ccc2c(Cl)c(OC)ccc2c1)N1CCN(CC=Cc2ccccc2)CC1 (racemic) | 87.5%
COc1ccc(C(CN(C)C)C2(O)CCCCC2)cc1 (centres unmarked) [venlafaxine, reference compound] | 100%
CCCC[C@@H]([C@@H](O)c1ccc2c(Cl)c(OC)ccc2c1)N1CCN(c2ccccc2OC)CC1 (racemic) | 146.5%
CCCC[C@H]([C@@H](O)c1ccc2c(Cl)c(OC)ccc2c1)N1CCN(C(c2ccccc2)c2ccccc2)CC1 (racemic) | 103.6%
CCCC[C@H]([C@H](O)c1ccc2c(Cl)c(OC)ccc2c1)N1CCN(C(c2ccccc2)c2ccccc2)CC1 (racemic) | 78%
